Tested on: NCI-H23 lung
Assay Comment: NCI tumour cell line growth inhibition, 48 h
Parameter: TGI. Scope: all listed entries.

1) COc1ccc(-c2c(C(C)=O)c(C)n(C3OC(COC(C)=O)C(OC(C)=O)C(OC(C)=O)C3OC(C)=O)c(=S)c2C#N)cc1 (stereo not given); > 100 µM

# ---- query compound ----
Recorded TGI for "CN1CCN(C(=O)OCc2nc3c(N4CCOCC4)nc(-c4ccccc4)nc3n2C)CC1" , please?
3.21 µM

###

System: OVCAR-8 ovarian
Assay Comment: NCI tumour cell line growth inhibition, 48 h
Parameter: TGI. Scope: all listed entries.

Some molecules with recorded TGI:
1) S=C1NC(c2ccccc2)=NC(Cc2ccccc2)(c2ccccc2)N1c1ccccc1 (stereo unspecified); > 100 µM
2) CCN(CC)CCOc1ccc(N2Cc3cc(OC)c(OC)cc3C2=O)cc1; > 100 µM
3) CC(C)C1=CC23CCC4C(C)(C(=O)O)CCCC4(C)C2CC1C1C(=O)N(c2ccc(N4C(=O)C5C6CC7C8(C)CCCC(C)(C(=O)O)C8CCC7(C=C6C(C)C)C5C4=O)cc2)C(=O)C13 (stereo unspecified); 16.5 µM
4) N#Cc1nc(N)c(C#N)[nH]1; > 100 µM

Param readout = TGI; param system = OVCAR-8 ovarian; param query = "COc1ccc2cc(NC(=O)Nn3cnnc3)ccc2c1" ; response: value
> 100 µM

Param readout = TGI; param system = OVCAR-8 ovarian; param query = "COC(=O)c1oc([N+](=O)[O-])c(-c2ccccc2)c1-c1ccccc1" ; response: value
> 100 µM

Param readout = TGI; param system = OVCAR-8 ovarian; param query = "CN(NC(=O)c1ccc(Cl)cc1)C1=NCCCCN1" ; response: value
> 100 µM

###

Test system: A549 NSCLC
Assay Comment: NCI tumour cell line growth inhibition, 48 h
Parameter: GI50. Scope: all listed entries.

Some compounds with recorded GI50:
1) CC12OC(C(=O)C13CC3)C1C(=O)c3cccc(O)c3C(=O)C12 (stereo unspecified); 28700 nM
2) O=C1NC(=N[C@@H]2C[C@H]2c2ccccc2)S/C1=C\c1ccc2ncccc2c1; 976 nM
3) COc1cc2cc(Oc3ccc(NC(=O)Nc4ccc(F)c(C(F)(F)F)c4)cc3)c(C)nc2cc1OCCN1CCOCC1; 2570 nM
4) CO[C@@H]1[C@H](N(C)C(=O)c2ccccc2)C[C@@H]2O[C@]1(C)n1c3ccccc3c3c4c(c5c6ccccc6n2c5c31)C(=O)NC4=O; 595 nM
5) NS(=O)(=O)c1ccc(N=Nc2c(O)[nH]c3cccc(CCc4ccncc4)c23)cc1; > 25000 nM

Param readout = GI50; param system = A549 NSCLC; param query = "Cc1cc(S(=O)(=O)Nc2n[nH]c(-c3ccc(Cl)cc3)c2C#N)c(S)cc1Cl" ; response: value
> 100000 nM

###

Test system: SK-OV-3 ovarian
Assay Comment: NCI tumour cell line growth inhibition, 48 h
Readout Type: TGI

1) CCOc1ccc(N=C2NC(=O)C(CC(=O)Nc3ccc(Cl)cc3Cl)S2)cc1 (stereo not drawn); > 100 µM
2) Cc1cc(S(=O)(=O)Nc2n[nH]c(-c3ccc(Cl)cc3)c2C#N)c(S)cc1Cl; > 100 µM
3) ClCCN(CCCl)c1ccc(OCc2ccccc2)cc1; 61.4 µM
4) N[C@@H]1c2c(Br)sc(Br)c2C(=O)[C@H]1Br; > 100 µM

Recorded TGI for "CCOC(=O)Nc1ccc2c3c(cccc13)-c1ccccc1-2" , please?
> 100 µM

Recorded TGI for "COc1c(O)cc2c(c1CC=C(C)C)OC(=O)c1c(cc(O)c(CC=C(C)C)c1O)O2" , please?
8.01 µM

###

Tested on: HCT-116 colon
Assay Comment: NCI tumour cell line growth inhibition, 48 h
Where a SMILES comes first, the peptide text is derived from it. The star is where a group is joined. Boc = CC(C)(C)OC(=O)*
Parameter: TGI. Scope: all listed entries.

Some molecules with recorded TGI:
1. COCN1C(=O)[C@@H]2CCCN2C(=O)c2ccc(Cl)cc21; > 100 µM
2. COc1cc(Br)cc2c1O[C@H]1C(=O)CC3CC21CCN3C (some centres not stated); > 100 µM
3. CC1(C)CCCCC1/C=C/C(CC(O)(C(F)(F)F)C(F)(F)F)=N\Nc1ccc([N+](=O)[O-])cc1[N+](=O)[O-] (configuration not stated); 6.2 µM
4. Cc1cccc2c1NC(=O)[C@@H](NC(=O)[C@H](CCC(F)(F)F)[C@H](CCC(F)(F)F)C(N)=O)N=C2c1cccc(F)c1; > 100 µM
5. O=C(CSc1nc2ccc([N+](=O)[O-])cc2[nH]1)Nc1ccc([N+](=O)[O-])cc1; > 32.6 µM

Recorded TGI for "COc1ccc(-c2cc(=O)c3cc4c(cc3[nH]2)OCO4)c(OC)c1" , please?
> 100 µM

Recorded TGI for CNC(=O)CNC(=O)C(NC(=O)CNC(=O)C1CCCN1C(=O)C(C)NC(=O)C(NC(=O)OC(C)(C)C)C(C)C)C(C)C (configuration not stated) (Boc-VAPGVG-NHMe; configuration not given here) , please?
> 100 µM

Recorded TGI for "CC(=O)c1cc2sc3ccccc3c2[nH]1" , please?
> 100 µM

Recorded TGI for "O=C(O)CSc1nc2ccccc2[nH]1" , please?
> 100 µM

Recorded TGI for "CC(=O)NS(=O)(=O)c1ccc(-n2nc(-c3ccccc3)cc2-c2cc(O)ccc2O)cc1" , please?
> 100 µM

Recorded TGI for NCCSC1(O)C(=O)c2ccccc2-c2ccccc21 (configuration not stated) , please?
1.04 µM

Recorded TGI for "COc1cc(C)cc(C(=O)OCc2ccccc2)c1C1=C(Cl)C(=O)C(Cl)=CC1=O" , please?
> 10 µM

Recorded TGI for "CCCc1c(O)c2ccccc2[nH]c1=O" , please?
> 100 µM

Recorded TGI for "CCCCN(CCCC)C1(c2cc3ccccc3s2)CCCCC1" , please?
23.7 µM

Recorded TGI for "N[C@@H]1c2c(Br)sc(Br)c2C(=O)[C@H]1Br" , please?
39.9 µM

Recorded TGI for "Cc1ccc(NC(=O)C23CC4CC(CC(C4)C2)C3)c(C(=O)NNC(=O)c2ccc(Cl)cc2)c1" , please?
> 100 µM

Recorded TGI for "CC1=N/C(=C\c2ccc(N)cc2)C(=O)N1Nc1nnc(NN2C(=O)/C(=C/c3ccc(N)cc3)N=C2C)c2ccccc12" , please?
> 100 µM

Recorded TGI for "Nc1ccc(-c2nnc(-c3c(Cl)c(Cl)c(Cl)c(Cl)c3-c3nc4ccc(C(=O)c5ccccc5)cc4[nH]3)o2)cc1" , please?
56.9 µM

Recorded TGI for CNC(=O)N(CCCC(NC(C)=O)C(=O)NCc1ccccc1)Cc1ccccc1 (configuration not stated) , please?
> 100 µM

Recorded TGI for "CN1CCN(C(=O)OCc2nc3c(N4CCOCC4)nc(-c4ccccc4)nc3n2C)CC1" , please?
0.648 µM

Recorded TGI for "CSc1nc(SC)c2cnn(-c3ccnc4cc(Cl)ccc34)c2n1" , please?
> 100 µM

###

Test system: MALME-3M melanoma
Assay Comment: NCI tumour cell line growth inhibition, 48 h
Readout Type: TGI

Recorded TGI for OCC(O)COc1ccc(F)cc1 (stereo unspecified) , please?
> 100 µM

Recorded TGI for "COc1cc(S(=O)(=O)Nc2ccc(-c3csc(/N=C\c4ccccc4O)n3)cc2)ccc1Cl" , please?
> 100 µM

###

Test system: IGROV1 ovarian
Assay Comment: NCI tumour cell line growth inhibition, 48 h
Readout Type: TGI

1. CC(=O)OC12c3ccccc3C(c3ccccc31)C1C(=O)N(Nc3ccccc3)C(=O)C12 (configuration not stated); > 100 µM

Recorded TGI for "Clc1ccc(Nc2ncnc3ccccc23)cc1" , please?
> 100 µM

Recorded TGI for "COc1ccc2cc(NC(=O)Nn3cnnc3)ccc2c1" , please?
> 100 µM

Recorded TGI for "CSc1nc(SC)c2c(C)cn(Cc3ccccc3)c2n1" , please?
> 100 µM

Recorded TGI for "O=C(O)CSc1nc2ccccc2[nH]1" , please?
> 100 µM

Recorded TGI for CC1(C)OP(=O)(c2ccccc2)C=C1Br (configuration not stated) , please?
> 100 µM

Recorded TGI for "CCOc1ccc(-n2c(=O)c3nn4c(=O)n(-c5ccc(OCC)cc5)c(=O)c4nn3c2=O)cc1" , please?
> 100 µM

Recorded TGI for CCOc1ccc(N=C2NC(=O)C(CC(=O)Nc3ccc(Cl)cc3Cl)S2)cc1 (configuration not stated) , please?
> 100 µM

Recorded TGI for "CCOC(=O)C(=O)N=Nc1c(O)[nH]c2ccccc12" , please?
> 100 µM

###

Tested on: HL-60(TB) leukemia
Assay Comment: NCI tumour cell line growth inhibition, 48 h
Parameter: TGI. Scope: all listed entries.

Some compounds with recorded TGI:
1) S=c1sc2sc(=S)sc2s1; 23.3 µM
2) Cc1ccc(C)c(N2C(=O)C(=O)C(c3nc4ccccc4s3)C(=O)C2=O)c1; > 100 µM
3) OCC(O)COc1ccc(F)cc1 (stereo unspecified); > 100 µM

Recorded TGI for "CC(=O)NS(=O)(=O)c1ccc(-n2nc(-c3ccccc3)cc2-c2cc(O)ccc2O)cc1" , please?
> 100 µM

Recorded TGI for CC1(C)CCCCC1/C=C/C(CC(O)(C(F)(F)F)C(F)(F)F)=N\Nc1ccc([N+](=O)[O-])cc1[N+](=O)[O-] (stereo unspecified) , please?
> 100 µM

Recorded TGI for Cc1nn(C(=O)c2ccc(Cl)cc2)c2c1C(c1ccccc1)SC(N)=N2 (stereo unspecified) , please?
> 10 µM

Recorded TGI for "CCCc1c(O)c2ccccc2[nH]c1=O" , please?
> 100 µM

Recorded TGI for CC(Cc1ccc(O)cn1)(NC(=O)c1ccccc1)C(=O)O (stereo unspecified) , please?
> 100 µM

Recorded TGI for CC1(C)CCCC2(C)[C@@H]1CC[C@]13C[C@](C)(CC[C@@H]21)[C@@H]3CO (stereo partly specified) , please?
> 100 µM

Recorded TGI for "O=C(CC(O)(C(F)(F)Cl)C(F)(F)Cl)CC(O)(C(F)(F)Cl)C(F)(F)Cl" , please?
4.94 µM

Recorded TGI for "c1ccc2c(CNCCCN3CCN(CCCNCc4cccc5ccccc45)CC3)cccc2c1" , please?
3.45 µM

Entry source: PubChem BioAssay (NCI)
